target: Full length LIGHT S192A on HEK293FF cells (Homo sapiens (Human), UniProt O43557 1-240); assay: flow cytometry, HEK293FF, mAb at EC50
Sequence (O43557 whole entry S192A): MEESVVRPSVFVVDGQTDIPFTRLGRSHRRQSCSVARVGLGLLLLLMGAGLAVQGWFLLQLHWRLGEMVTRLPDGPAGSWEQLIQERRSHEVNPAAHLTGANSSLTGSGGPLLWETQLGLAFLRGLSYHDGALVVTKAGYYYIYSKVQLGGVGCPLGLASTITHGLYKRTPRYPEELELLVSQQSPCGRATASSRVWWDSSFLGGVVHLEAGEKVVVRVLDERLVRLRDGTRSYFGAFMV
Parameter: % of WT binding. Scope: all listed entries.
Give the value, in units of %, as a plain number.

| BINDER | % of WT binding / % |
| --- | --- |
| 2B11 chimeric IgG4 mAb (antibody, V domains shown, Chimeric human IgG4 (S-to-P, L-to-E) with human CL, as m1; Often misprinted 2B111; also called Parental 2B11; 2B111) VH: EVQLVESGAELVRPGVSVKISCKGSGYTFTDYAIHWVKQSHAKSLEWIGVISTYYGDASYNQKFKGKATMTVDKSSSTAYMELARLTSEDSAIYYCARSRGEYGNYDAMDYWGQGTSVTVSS VL: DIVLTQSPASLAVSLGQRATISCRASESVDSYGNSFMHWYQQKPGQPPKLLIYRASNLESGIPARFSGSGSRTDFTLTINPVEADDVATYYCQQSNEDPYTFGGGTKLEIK | 96 |
| 2E08 chimeric IgG4 mAb (antibody, V domains shown, Chimeric human IgG4 (S-to-P, L-to-E) with human CL, as m1; also called Parental 2E08) VH: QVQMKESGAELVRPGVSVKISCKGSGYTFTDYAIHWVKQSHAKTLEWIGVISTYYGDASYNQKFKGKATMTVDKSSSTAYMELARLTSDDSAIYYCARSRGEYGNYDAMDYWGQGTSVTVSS VL: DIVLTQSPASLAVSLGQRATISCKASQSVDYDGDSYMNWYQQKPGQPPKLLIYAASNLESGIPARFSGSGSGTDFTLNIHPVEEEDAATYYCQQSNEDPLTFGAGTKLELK | 122 |
| 3D12 chimeric IgG4 mAb (antibody, V domains shown, Chimeric human IgG4 (S-to-P, L-to-E) with human CL, as m1; also called Parental 3D12; 03D12) VH: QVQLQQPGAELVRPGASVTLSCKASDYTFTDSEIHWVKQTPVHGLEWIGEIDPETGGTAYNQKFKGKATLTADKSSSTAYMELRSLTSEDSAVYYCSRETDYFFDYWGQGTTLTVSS VL: DIQMTQSPASLSASVGETVTITCGASENIYGALNWYQRKQGKSPQLLIYGATNLADGMSSRFSGSGSGRQYSLKISSLHPDDVATYYCQNVLSTPWTFGGGTKLEIK | 84 |

# input for lookup
Request: Please give the measured % of WT binding for this binder: 3A07 chimeric IgG4 mAb (antibody, V domains shown, Chimeric human IgG4 (S-to-P, L-to-E) with human CL, as m1; also called Parental 3A07) VH: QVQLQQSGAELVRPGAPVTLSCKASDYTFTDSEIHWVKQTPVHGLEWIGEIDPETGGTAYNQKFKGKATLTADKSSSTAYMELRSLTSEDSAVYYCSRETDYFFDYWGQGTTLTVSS VL: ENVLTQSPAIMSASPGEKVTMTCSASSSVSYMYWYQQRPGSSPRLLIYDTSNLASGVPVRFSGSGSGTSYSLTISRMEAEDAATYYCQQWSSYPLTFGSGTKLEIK
Response: 41
